Below is a list of entries, each paired with its recorded IC50 value.
target: EGFR (Homo sapiens (Human))
Sequence (P00533 25-1210): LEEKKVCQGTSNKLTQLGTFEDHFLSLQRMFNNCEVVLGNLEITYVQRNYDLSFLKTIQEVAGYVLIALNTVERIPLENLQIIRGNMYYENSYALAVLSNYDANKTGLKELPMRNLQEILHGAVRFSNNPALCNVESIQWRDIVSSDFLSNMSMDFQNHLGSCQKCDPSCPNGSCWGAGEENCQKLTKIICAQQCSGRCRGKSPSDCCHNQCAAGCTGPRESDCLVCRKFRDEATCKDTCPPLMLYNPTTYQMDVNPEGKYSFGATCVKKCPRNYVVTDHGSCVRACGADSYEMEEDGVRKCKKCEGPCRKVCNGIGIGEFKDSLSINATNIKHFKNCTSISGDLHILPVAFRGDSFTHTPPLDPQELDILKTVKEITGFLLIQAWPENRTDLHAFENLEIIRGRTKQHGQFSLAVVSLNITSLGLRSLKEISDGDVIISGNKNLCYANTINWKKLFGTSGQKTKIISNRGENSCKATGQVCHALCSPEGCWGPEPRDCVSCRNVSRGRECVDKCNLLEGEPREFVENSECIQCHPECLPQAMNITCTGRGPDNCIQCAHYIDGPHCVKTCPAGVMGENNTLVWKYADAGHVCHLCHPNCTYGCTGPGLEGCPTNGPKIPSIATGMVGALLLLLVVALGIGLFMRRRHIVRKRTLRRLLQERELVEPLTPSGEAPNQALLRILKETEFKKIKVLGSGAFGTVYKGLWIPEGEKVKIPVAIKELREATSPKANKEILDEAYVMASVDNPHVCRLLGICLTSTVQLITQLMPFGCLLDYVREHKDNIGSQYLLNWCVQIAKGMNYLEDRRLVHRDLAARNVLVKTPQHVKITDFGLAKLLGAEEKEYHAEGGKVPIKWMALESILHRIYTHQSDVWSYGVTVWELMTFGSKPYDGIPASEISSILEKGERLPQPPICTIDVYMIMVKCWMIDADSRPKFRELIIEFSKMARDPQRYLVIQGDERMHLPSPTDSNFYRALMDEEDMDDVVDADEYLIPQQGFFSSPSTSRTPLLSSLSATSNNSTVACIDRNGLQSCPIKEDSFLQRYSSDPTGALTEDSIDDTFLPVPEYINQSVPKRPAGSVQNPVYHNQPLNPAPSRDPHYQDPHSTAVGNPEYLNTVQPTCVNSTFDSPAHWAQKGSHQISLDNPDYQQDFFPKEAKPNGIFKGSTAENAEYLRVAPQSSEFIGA
Quick note: give the figure in µM, leave out the unit.

Consider the worked cases shown below.
COMPOUND: Cc1cc(Nc2ncnc3cnc(N4CC[C@H](O)C4)nc23)ccc1Oc1ccc2c(c1)ncn2C [Example 174]
VALUE_MEASURED: 2.77
--
COMPOUND: Cc1cc(Nc2ncnc3cnc(N4CCOC5CC54)nc23)ccc1Oc1ccn2ncnc2c1 (stereo not drawn) [Example 382]
VALUE_MEASURED: 6.01
--
COMPOUND: CN1CCN(c2ncc3ncnc(Nc4ccc(Oc5ccc6c(c5)ncn6C)c(Cl)c4)c3n2)CC1 [Example 143, 2,2,2-trifluoroacetate]
VALUE_MEASURED: 7.41
--
COMPOUND: Cc1cc(Nc2ncnc3cnc(N(C)CC(F)F)nc23)ccc1Oc1ccc2c(c1)ncn2C [Example 57]
VALUE_MEASURED: 6.63

Next compound, IC50 to be filled in.
Item: Cc1cc(Nc2ncnc3cnc(N(C)CC(C)(C)CO)nc23)ccc1Oc1ccc2c(c1)ncn2C [Example 364] Test system: EGFR (Homo sapiens (Human)) Read-out: IC50 Value: ?
2.68

Origin of the recorded values: patent US11834453B2
